# Tested on: Staphylococcus aureus V41
# test-description: MIC, standard agar-dilution assay, S. aureus V41
# Format: cell-based
# run-parameters: Staphylococcus aureus, V41
quantity-kind: MIC (µg/mL)
Just the number please, in µg/mL, no unit attached.

compound	readout-number
CCC1OC(=O)CC(O)C(C)C(OC2OC(C)C(O)C(N(C)C)C2O)C(CCOc2ccccc2)CC(C)C(=O)C=CC(C)=CC1COC1OC(C)C(N(C)C)C(OC)C1OC (centres unmarked)	4

The reported MIC of the compound CCC1OC(=O)CC(O)C(C)C(OC2OC(C)C(O)C(N(C)C)C2O)C(CCOc2ccccc2)CC(C)C(=O)C=CC(C)=CC1COC1OC(C)CC(=O)C1OC (centres unmarked) was 0.5

Form field MIC, entry CCC1OC(=O)CC(O)C(C)C(OC2OC(C)C(O)C(N(C)C)C2O)C(CCOc2ccccc2)CC(C)C(=O)C=CC(C)=CC1COC1OC(C)C(I)C(OC)C1OC (centres unmarked) : 8

For CCC1OC(=O)CC(O)C(C)C(OC2OC(C)C(OC(C)=O)C(N(C)C)C2OC(C)=O)C(CCOc2ccccc2)CC(C)C(=O)C=CC(C)=CC1COC1OC(C)C(OS(=O)(=O)C(F)(F)F)C(OC)C1OC (centres unmarked) the compound record lists MIC as 2

Sample CCC1OC(=O)CC(O)C(C)C(OC2OC(C)C(O)C(N(C)C)C2O)C(CCOc2ccccc2)CC(C)C(=O)C=CC(C)=CC1COC1OC(C)C(NC(C)C)C(OC)C1OC (centres unmarked) ; MIC observed: 16

Reported MIC ( CCC1OC(=O)CC(O)C(C)C(OC2OC(C)C(O)C(N(C)C)C2O)C(CCOc2ccccc2)CC(C)C(=O)C=CC(C)=CC1COC1OC(C)C(n2cccc2)C(OC)C1OC (centres unmarked) ) = 8

Value of measured MIC for the entry CCC1OC(=O)CC(O)C(C)C(OC2OC(C)C(O)C(N(C)C)C2O)C(CCOc2ccccc2)CC(C)C(=O)C=CC(C)=CC1COC1OC(C)C=C(OC)C1OC (centres unmarked) : 1

The compound listed as CCC1OC(=O)CC(O)C(C)C(OC2OC(C)C(O)C(N(C)C)C2O)C(CCOc2ccccc2)CC(C)C(=O)C=CC(C)=CC1COC1OC(C)C(N=[N+]=[N-])C(OC)C1OC (centres unmarked) shows MIC equal to 4

# MIC (compound: CCC1OC(=O)CC(O)C(C)C(OC2OC(C)C(O)C(N(C)C)C2O)C(CCOc2ccccc2)CC(C)C(=O)C=CC(C)=CC1COC1OC(C)C(NCc2ccccc2)C(OC)C1OC (centres unmarked) ) is 2

# MIC of CCC1OC(=O)CC(O)C(C)C(OC2OC(C)C(O)C(N(C)C)C2O)C(CCOc2ccccc2)CC(C)C(=O)C=CC(C)=CC1COC1OC(C)/C(=N/OC)C(OC)C1OC (centres unmarked) = 1

For CCC1OC(=O)CC(O)C(C)C(OC2OC(C)C(OC(C)=O)C(N(C)C)C2OC(C)=O)C(CCOc2ccccc2)CC(C)C(=O)C=CC(C)=CC1COC1OC(C)C([n+]2ccccc2)C(OC)C1OC (centres unmarked) the compound record lists MIC as 4

---

# System: Streptococcus Group D X66
# test-description: MIC, standard agar-dilution assay, Streptococcus Group D X66
# Assay type: cell-based
quantity-kind: MIC (µg/mL)
Give just the number in µg/mL; leave the unit off.

Recorded results for 4 compounds are shown here.
compound	MIC / µg/mL
CCC1OC(=O)CC(O)C(C)C(OC2OC(C)C(O)C(N(C)C)C2O)C(CCOc2ccccc2)CC(C)C(=O)C=CC(C)=CC1COC1OC(C)C(OS(=O)(=O)Cc2ccccc2)C(OC)C1OC (centres unmarked) [Compound 17]	32
CCC1OC(=O)CC(O)C(C)C(OC2OC(C)C(O)C(N(C)C)C2O)C(CCOc2ccccc2)CC(C)C(=O)C=CC(C)=CC1COC1OC(C)C(OC)C(O)C1OC (centres unmarked) [Compound 50, 4"-O-Methyl-20-DH-20-O-phenyl-lactenocin]	16
CCC1OC(=O)CC(O)C(C)C(OC2OC(C)C(O)C(N(C)C)C2O)C(CCOc2ccccc2)CC(C)C(=O)C=CC(C)=CC1COC1OC(C)C(n2cccc2)C(OC)C1OC (centres unmarked) [Compound 46]	32
CCC1OC(=O)CC(O)C(C)C(OC2OC(C)C(O)C(N(C)C)C2O)C(CCOc2ccccc2)CC(C)C(=O)C=CC(C)=CC1COC1OC(C)/C(=N\OC)C(OC)C1OC (centres unmarked) [Compound 6]	4

Query compound follows.
Sample CCC1OC(=O)CC(O)C(C)C(OC2OC(C)C(O)C(N(C)C)C2O)C(CCOc2ccccc2)CC(C)C(=O)C=CC(C)=CC1COC1OC(C)C(N2CCCCC2)C(OC)C1OC (centres unmarked) [Compound 42] ; MIC observed: 16
